Parameter: IC50. Scope: all listed entries.
tgt: UniProtKB P23786
Sequence (P23786 whole entry): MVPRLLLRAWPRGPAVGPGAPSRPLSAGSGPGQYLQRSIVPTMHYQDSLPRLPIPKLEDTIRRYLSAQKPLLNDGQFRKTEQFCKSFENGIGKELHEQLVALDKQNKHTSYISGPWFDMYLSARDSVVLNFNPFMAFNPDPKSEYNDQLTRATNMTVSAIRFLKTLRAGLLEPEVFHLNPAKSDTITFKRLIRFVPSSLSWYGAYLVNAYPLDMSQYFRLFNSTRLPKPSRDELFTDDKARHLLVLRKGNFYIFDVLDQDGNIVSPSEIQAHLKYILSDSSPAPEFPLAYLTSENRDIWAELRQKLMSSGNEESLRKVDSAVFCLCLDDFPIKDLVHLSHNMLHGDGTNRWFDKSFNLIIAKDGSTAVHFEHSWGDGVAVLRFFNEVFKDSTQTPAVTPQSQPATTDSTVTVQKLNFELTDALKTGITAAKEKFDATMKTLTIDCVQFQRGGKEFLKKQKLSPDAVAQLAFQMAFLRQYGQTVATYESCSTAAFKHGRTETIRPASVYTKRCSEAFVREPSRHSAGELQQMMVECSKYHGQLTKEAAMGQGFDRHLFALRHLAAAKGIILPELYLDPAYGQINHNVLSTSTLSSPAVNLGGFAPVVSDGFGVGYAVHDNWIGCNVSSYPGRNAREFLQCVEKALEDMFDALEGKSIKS

{"molecule": "O=C(Nc1ccc(-c2nnn[nH]2)cc1)c1nn(Cc2ccc(OC(F)F)cc2)c2ccc(F)cc12", "operator": ">", "IC50 [µM]": 100}
{"molecule": "CC(C)C(=O)Nc1cccc(-c2n[nH]c([C@H]3CCCCN3C(=O)COc3ccccc3)n2)c1", "operator": "=", "IC50 [µM]": 36.7}
{"molecule": "COc1ccc(Cl)cc1S(=O)(=O)N1COc2ccc(C(=O)Nc3ccc(C(=O)O)c(F)c3)cc21", "operator": "=", "IC50 [µM]": 3.45}
{"molecule": "O=C(COc1ccccc1)N1CCCC[C@@H]1c1noc(-c2cnnc3ccccc23)n1", "operator": "=", "IC50 [µM]": 18.8}
{"molecule": "COc1ccc(Cl)cc1S(=O)(=O)N1CCS(=O)(=O)c2ccc(C(=O)Nc3ccc(C(=O)O)c(Cl)c3)cc21", "operator": "=", "IC50 [µM]": 5.56}
{"molecule": "O=C1CCC(=O)N1c1cccc(-c2n[nH]c([C@H]3CCCCN3C(=O)COc3ccccc3)n2)c1", "operator": "=", "IC50 [µM]": 21.4}
{"molecule": "O=C(Nc1ccc(C(=O)O)c(F)c1)c1ccc2c(c1)N(S(=O)(=O)c1cccc(C(F)(F)F)c1)CC2", "operator": "=", "IC50 [µM]": 32}
{"molecule": "Cc1cc(C)cc(S(=O)(=O)c2nn(C)c3ccc(C(=O)Nc4ccc(C(=O)O)cc4)cc23)c1", "operator": "=", "IC50 [µM]": 2.46}
{"molecule": "O=C(O)Cc1csc(NC(=O)c2ccc3c(c2)N(S(=O)(=O)c2cccc(Cl)c2)CCO3)n1", "operator": ">", "IC50 [µM]": 100}
{"molecule": "COc1ccc(Cl)cc1S(=O)(=O)N1CCc2c(C)cc(C(=O)Nc3ccc(CC(=O)O)cc3)cc21", "operator": "=", "IC50 [µM]": 98.4}
{"molecule": "CN1CCN(C(=O)COc2ccccc2)[C@@H](c2nc(-c3ccc4[nH]nnc4c3)no2)C1", "operator": ">", "IC50 [µM]": 100}
{"molecule": "O=C(COc1ccccc1)N1CCCC[C@@H]1c1nnn(-c2ccc3[nH]ccc3c2)n1", "operator": "=", "IC50 [µM]": 47.3}
{"molecule": "COC(=O)c1ccc(-c2nc([C@H]3CCCCN3C(=O)COc3ccccc3)cs2)cc1", "operator": ">", "IC50 [µM]": 100}
{"molecule": "O=C(COc1ccccc1)N1CCCC[C@@H]1c1csc(-c2cccnc2)n1", "operator": ">", "IC50 [µM]": 100}
{"molecule": "COc1ccc(C)cc1S(=O)(=O)n1ccc2ccc(C(=O)Nc3ccc(C(=O)O)cc3)cc21", "operator": "=", "IC50 [µM]": 1.07}
{"molecule": "COc1ccc(Cl)cc1S(=O)(=O)c1nn(CCC(=O)O)c2ccc(C(=O)Nc3ccccc3)cc12", "operator": ">", "IC50 [µM]": 100}
{"molecule": "COc1ccc(Cl)cc1S(=O)(=O)N1CCOc2c(Cl)cc(C(=O)Nc3nc(CC(=O)O)cs3)cc21", "operator": ">", "IC50 [µM]": 100}
{"molecule": "O=C(COc1ccccc1)N1CCCC[C@@H]1c1noc(-c2ccc3ncsc3c2)n1", "operator": "=", "IC50 [µM]": 18}
{"molecule": "O=C(COc1ccccc1)N1CCCC[C@@H]1c1noc(-c2ccc(Cl)nc2)n1", "operator": "=", "IC50 [µM]": 38.2}
{"molecule": "COc1ccc(Cl)cc1S(=O)(=O)N1CCS(=O)(=O)c2ccc(C(=O)Nc3ccc(C(=O)O)cc3)cc21", "operator": ">", "IC50 [µM]": 100}
{"molecule": "O=C(O)c1ccc(NC(=O)c2cccc(S(=O)(=O)N3CCCc4ccc(C(F)(F)F)cc43)c2)cc1", "operator": "=", "IC50 [µM]": 5.73}
{"molecule": "O=C(COc1ccccc1)N1CCCC[C@@H]1c1noc(-c2ccc3[nH]nnc3c2)n1", "operator": ">", "IC50 [µM]": 100}
{"molecule": "COc1ccc(Cl)cc1Cc1cn(C)c2ccc(C(=O)Nc3ccc(CC(=O)O)cc3)cc12", "operator": ">", "IC50 [µM]": 100}
{"molecule": "COc1ccc(Cl)cc1S(=O)(=O)N1CCOc2c1cc(C(=O)Nc1ccc(C(=O)O)cc1)cc2C(F)(F)F", "operator": "=", "IC50 [µM]": 2.32}
{"molecule": "O=C(COc1ccccc1)N1CCOC[C@@H]1c1nc(-c2ccc3[nH]cnc3c2)no1", "operator": ">", "IC50 [µM]": 100}
{"molecule": "COc1ccc(Cl)cc1S(=O)(=O)c1c[nH]c2ccc(C(=O)Nc3ccc(CC(=O)O)cc3)cc12", "operator": ">", "IC50 [µM]": 100}
{"molecule": "COc1ccc(C)cc1S(=O)(=O)N1CCCc2ccc(C(=O)Nc3ccc(C(=O)O)c(F)c3)cc21", "operator": "=", "IC50 [µM]": 4.43}
{"molecule": "O=C1Cc2cc(-c3noc([C@H]4CCCCN4C(=O)COc4ccccc4)n3)ccc2N1", "operator": "=", "IC50 [µM]": 42.9}
{"molecule": "O=C1CNc2ccc(-c3nc([C@H]4CCCCN4C(=O)COc4ccccc4)no3)cc2N1", "operator": "=", "IC50 [µM]": 21.2}
{"molecule": "COc1ccc(Cl)cc1S(=O)(=O)N(C)c1cc(C(=O)Nc2ccc(C(=O)O)cc2)cc2c1OCO2", "operator": "=", "IC50 [µM]": 17.8}
{"molecule": "CN(C)C(=O)c1ccc(-c2noc(C3C4CC4CN3C(=O)COc3ccccc3)n2)cc1 (stereo unspecified)", "operator": "=", "IC50 [µM]": 47.1}
{"molecule": "O=C1COc2ccc(-c3n[nH]c([C@H]4CCCCN4C(=O)COc4ccccc4)n3)cc2N1", "operator": "=", "IC50 [µM]": 49}
{"molecule": "CCCN(c1cc(C(=O)Nc2nc(CC(=O)O)cs2)cc2c1OCO2)S(=O)(=O)c1cc(Cl)ccc1OC", "operator": ">", "IC50 [µM]": 100}
{"molecule": "O=C(COc1ccccc1)N1CCCC[C@@H]1c1nc(-c2ccc(Cl)cc2)cs1", "operator": ">", "IC50 [µM]": 100}
{"molecule": "O=C1CCC(=O)N1c1cc(F)cc(-c2noc([C@H]3CCCCN3C(=O)COc3ccccc3)n2)c1", "operator": "=", "IC50 [µM]": 16.2}
{"molecule": "Cn1cc(S(=O)(=O)c2cccc(Cl)c2)c2cc(C(=O)Nc3ccc(C(=O)O)cc3)ccc21", "operator": "=", "IC50 [µM]": 1.5}

====

assay explanation: SUPPLEMENTARY: PAMPA permeability assay
Format: physicochemical
condition: read-out: Permeability

{"molecule": "O=C(COc1ccccc1)N1CCCC[C@@H]1c1nc(-c2ccc(F)c(F)c2)n[nH]1", "Papp": "1.72 ×10⁻⁶ cm/s"}
{"molecule": "O=C(NCCO)c1cccc(-c2n[nH]c([C@H]3CCCCN3C(=O)COc3ccccc3)n2)c1", "Papp": "0.51 ×10⁻⁶ cm/s"}
{"molecule": "CC(=O)Nc1cc(F)cc(-c2noc([C@H]3CCCCN3C(=O)COc3ccccc3)n2)c1", "Papp": "1.35 ×10⁻⁶ cm/s"}
{"molecule": "CCOc1ccc(C(=O)Nc2ccc(CC(=O)O)cc2)cc1N(CCS(=O)O)S(=O)(=O)c1cc(Cl)ccc1OC", "Papp": "0.04 ×10⁻⁶ cm/s"}
{"molecule": "NNC(=O)c1cccc(-c2n[nH]c([C@H]3CCCCN3C(=O)COc3ccccc3)n2)c1", "Papp": "2.02 ×10⁻⁶ cm/s"}
{"molecule": "CCOC(=O)c1cncc(-c2noc([C@H]3CCCCN3C(=O)COc3ccccc3)n2)c1", "Papp": "1.56 ×10⁻⁶ cm/s"}
{"molecule": "CCN(CC)C(=O)c1ccc(-c2noc([C@H]3CCCCN3C(=O)COc3ccccc3)n2)cc1", "Papp": "1.49 ×10⁻⁶ cm/s"}
{"molecule": "O=C(COc1ccccc1)N1CCCCC1c1cc(-c2ccccc2)n[nH]1 (centres undefined)", "Papp": "0.53 ×10⁻⁶ cm/s"}
{"molecule": "O=C([C@H]1CCCCN1C(=O)COc1ccccc1)N1Cc2ccc(C3CCOC3)cc2C1 (some centres undefined)", "Papp": "4.71 ×10⁻⁶ cm/s"}
{"molecule": "CCN(CC)C(=O)c1cncc(-c2noc([C@H]3CCCCN3C(=O)COc3ccccc3)n2)c1", "Papp": "5.44 ×10⁻⁶ cm/s"}
{"molecule": "O=C(COc1ccccc1)N1CCCC[C@@H]1c1nc(-c2ccc(S(=O)(=O)NCCO)cc2)no1", "Papp": "2.27 ×10⁻⁶ cm/s"}
{"molecule": "COc1ccc(Cl)cc1S(=O)(=O)N1CC(C)c2ccc(C(=O)Nc3ccc(C(=O)O)c(F)c3)cc21 (centres undefined)", "Papp": "1.99 ×10⁻⁶ cm/s"}
{"molecule": "COc1ccc(Cl)cc1S(=O)(=O)N1CCCCc2ccc(C(=O)Nc3nc(CC(=O)O)cs3)cc21", "Papp": "3.46 ×10⁻⁶ cm/s"}
{"molecule": "O=C(COc1ccccc1)N1CCCC[C@@H]1c1nc(-c2ccc([N+](=O)[O-])o2)no1", "Papp": "5.09 ×10⁻⁶ cm/s"}
{"molecule": "Cc1cc(-c2noc([C@H]3CCCCN3C(=O)COc3ccccc3)n2)n(C)n1", "Papp": "4.34 ×10⁻⁶ cm/s"}
{"molecule": "COc1ccc(Cl)cc1S(=O)(=O)c1nn(C)c2ccc(C(=O)Nc3ccc(C(=O)O)cc3)cc12", "Papp": "1.89 ×10⁻⁶ cm/s"}
{"molecule": "CN1CCN(C(=O)COc2ccccc2)[C@@H](c2nc(-c3cccc(C(F)(F)F)c3)n[nH]2)C1", "Papp": "2.31 ×10⁻⁶ cm/s"}
{"molecule": "O=C(COc1ccccc1)N1CCNC[C@@H]1c1nc(-c2ccc3[nH]cnc3c2)no1", "Papp": "1.53 ×10⁻⁶ cm/s"}
{"molecule": "O=C(O)c1ccc(NC(=O)c2ccc3c(c2)N(S(=O)(=O)c2cccc(Cl)c2)CCO3)cc1", "Papp": "3.01 ×10⁻⁶ cm/s"}

This collection of values is drawn from ChEMBL document CHEMBL3431459.
